target: MMP-2h (Homo sapiens (Human)); test: Inhibition constant (Ki) on MMP-2h; assay type: biochemical; conditions: human MMP-2
Sequence (P08253 110-660): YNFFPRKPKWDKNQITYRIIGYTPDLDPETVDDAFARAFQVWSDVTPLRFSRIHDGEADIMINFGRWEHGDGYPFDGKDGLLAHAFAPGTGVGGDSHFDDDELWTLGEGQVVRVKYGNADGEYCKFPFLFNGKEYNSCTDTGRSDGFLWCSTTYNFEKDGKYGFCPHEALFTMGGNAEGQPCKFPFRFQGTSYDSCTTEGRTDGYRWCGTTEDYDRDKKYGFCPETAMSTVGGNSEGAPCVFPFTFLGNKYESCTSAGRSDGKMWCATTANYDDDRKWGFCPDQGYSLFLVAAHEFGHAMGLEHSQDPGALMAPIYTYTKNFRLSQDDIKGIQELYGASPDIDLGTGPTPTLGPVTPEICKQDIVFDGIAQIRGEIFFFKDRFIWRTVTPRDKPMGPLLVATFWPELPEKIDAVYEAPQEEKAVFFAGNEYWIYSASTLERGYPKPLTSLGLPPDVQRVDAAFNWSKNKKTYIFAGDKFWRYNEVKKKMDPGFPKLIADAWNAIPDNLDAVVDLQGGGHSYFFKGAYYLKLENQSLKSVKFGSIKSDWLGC
Measured pKi values are reported for all entries that follow.
To interpret pKi, take it as minus log10 of a concentration measured in moles per litre.

Example entries and their recorded answers appear below.
What is its pKi for MMP-2h (Homo sapiens (Human))? Entry: `NC(=O)[C@H](CCC(=O)O)NC(=O)[C@H](CCC(=O)O)NC(=O)CCc1ccc(-c2nccs2)cc1` 6.18

Note, next up: `NC(=O)CC[C@H](NC(=O)[C@H](CCC(=O)O)NC(=O)CCc1ccc(-c2ccccc2)cc1)C(N)=O` 6.35

Moving on to the next compound: `NC(=O)[C@H](CCC(=O)O)NC(=O)[C@H](CCC(=O)O)NC(=O)CCc1ccc(-c2ccsc2)cc1` 6.65

Another: `NC(=O)[C@H](CCC(=O)O)NC(=O)[C@H](CCC(=O)O)NC(=O)CCc1ccc(-c2nc3ccccc3s2)cc1` 6.82

Next compound up: `NC(=O)[C@H](CC(=O)O)NC(=O)[C@H](CCC(=O)O)NC(=O)CCc1cc(-c2ccc(-c3ccccc3)cc2)no1` 7.03

# evaluate next
Checklist item: pKi tested on MMP-2h (Homo sapiens (Human)), entry `NC(=O)[C@H](CCC(=O)O)NC(=O)[C@H](CCC(=O)O)NC(=O)CCc1cc(-c2ccc(-c3ccccc3)cc2)no1` , value? 7.08

---

molecular target: MMP-13h (Homo sapiens (Human), UniProt P45452); assay: Inhibition constant (Ki) on MMP-13h; assay type: biochemical; conditions: read-out: Ki MMP-13h; human MMP-13
assay.readout: pKi
Scale for pKi: -log10 of concentration given in mol/L; no unit attached.

Examples from the recorded data:
# pKi lookup, item `NC(=O)[C@H](CCC(=O)O)NC(=O)CCc1ccc(-c2cc(-c3ccccc3)cs2)cc1` 6.22

What would you report for `NC(=O)[C@H](CCC(=O)O)NC(=O)[C@H](CCC(=O)O)NC(=O)CCc1ccc(COc2ccccc2)cc1` ? 6.93

Same thing, different compound: `NC(=O)[C@H](CCC(=O)O)NC(=O)[C@H](CCC(=O)O)NC(=O)CCc1ccc(Oc2ccccc2)cc1` 6.51

Others:
What does the data say about its pKi? Entry: `NC(=O)[C@H](CCC(=O)O)NC(=O)[C@H](Cc1ccc(O)cc1)NC(=O)CCc1ccc(-c2ccc(-c3ccccc3)cc2)cc1` 6.63

---

Catalogue of Ki values
Target: MMP-3h (Homo sapiens (Human), UniProt P08254)
Sequence (P08254 100-477): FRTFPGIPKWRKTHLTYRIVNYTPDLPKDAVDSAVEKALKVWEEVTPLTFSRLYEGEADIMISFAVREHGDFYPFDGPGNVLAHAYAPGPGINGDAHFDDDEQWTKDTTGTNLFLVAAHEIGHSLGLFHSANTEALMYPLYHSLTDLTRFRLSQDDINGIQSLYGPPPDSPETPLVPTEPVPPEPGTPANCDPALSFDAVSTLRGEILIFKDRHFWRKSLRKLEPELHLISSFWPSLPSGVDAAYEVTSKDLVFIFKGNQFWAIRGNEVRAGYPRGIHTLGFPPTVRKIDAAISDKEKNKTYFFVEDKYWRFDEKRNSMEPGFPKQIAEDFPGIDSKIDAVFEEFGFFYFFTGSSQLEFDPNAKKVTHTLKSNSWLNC
Assay: Inhibition constant (Ki) on MMP-3h
Assay type: biochemical
Conditions: read-out: Ki MMP-3h; human MMP-3
From the text: The inhibition constant Ki of these compounds has been determined according to the protocol described by Devel et al, 2006, J. Biol. Chem. (7). In this table I and also in table II below, “h” corresponds to human. All of the compounds have therefore been evaluated on human MMPs.
Value expressed in nM; do not type the unit.

Could you share which Ki value was measured for `NC(=O)[C@H](CCC(=O)O)NC(=O)[C@H](CC(=O)O)NC(=O)CCc1cc(-c2ccc(-c3cccc(Cl)c3)cc2)no1` ? 381

Please answer likewise for `NC(=O)[C@@H](CCC(=O)O)NC(=O)[C@H](CCC(=O)O)NC(=O)CCc1cc(-c2ccc(-c3cccc(Cl)c3)cc2)no1` 240

Item: `NC(=O)[C@H](CCC(=O)O)NC(=O)[C@H](CCC(=O)O)NC(=O)CCc1cc(-c2ccc(-c3cccc(Cl)c3)cc2)no1` 62

Continuing:
Can you look up the measured Ki of `O=C(O)CC[C@H](NC(=O)CCc1ccc(-c2ccc(-c3ccccc3)cc2)cc1)C(=O)Nc1cccc(CC(=O)O)c1` for me? 34

---

target: MMP-12h (Homo sapiens (Human)); experiment: Inhibition constant (Ki) on MMP-12h; assay type: biochemical; conditions: human MMP-12
Sequence (P39900 106-470): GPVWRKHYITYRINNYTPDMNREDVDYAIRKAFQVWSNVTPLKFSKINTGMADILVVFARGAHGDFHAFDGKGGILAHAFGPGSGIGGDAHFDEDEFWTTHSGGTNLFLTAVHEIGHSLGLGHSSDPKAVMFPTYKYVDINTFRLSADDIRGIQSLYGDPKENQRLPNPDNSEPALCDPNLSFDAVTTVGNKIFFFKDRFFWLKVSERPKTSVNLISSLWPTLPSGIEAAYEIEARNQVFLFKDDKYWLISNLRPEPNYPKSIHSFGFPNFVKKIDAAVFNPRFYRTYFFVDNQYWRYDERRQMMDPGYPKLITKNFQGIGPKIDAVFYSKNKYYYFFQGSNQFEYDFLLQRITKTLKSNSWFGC
assay.readout: Ki (nM)
Quick reminder: number only, in nM, skip the unit.

Some entries whose results are on file:
Return reported Ki; argument: NC(=O)[C@H](CC(=O)O)NC(=O)[C@H](CCC(=O)O)NC(=O)CCc1cc(-c2ccc(-c3ccccc3)cc2)no1 [Compound 18] 8

And the next one, NC(=O)[C@H](CCC(=O)O)NC(=O)[C@H](CCC(=O)O)NC(=O)CCc1cc(-c2ccc(-c3ccccc3)cc2)no1 [Compound 16] ? 3.4

Please examine the following record next.
Item under review: NC(=O)[C@H](CCCC(=O)O)NC(=O)[C@H](CCCC(=O)O)NC(=O)CCc1cc(-c2ccc(-c3cccc(Cl)c3)cc2)no1 [Compound 13] . Reported Ki? 348

---

molecular target: MMP-3h (Homo sapiens (Human)); test: Inhibition constant (Ki) on MMP-3h; format: biochemical; conditions: read-out: Ki MMP-3h; human MMP-3
assay.readout: log10(Ki) (log10 of the value in nM)
Lab note - Ki converted to log10 from values in nM.

Here's what some known entries look like.
Consider the compound shown here: `NC(=O)[C@H](CC(=O)O)NC(=O)[C@H](CCC(=O)O)NC(=O)CCc1cc(-c2ccc(-c3cccc(Cl)c3)cc2)no1` What is its recorded log10(Ki)? 2.39

Item: `NC(=O)[C@H](CCC(=O)O)NC(=O)[C@H](CC(=O)O)NC(=O)CCc1ccc(-c2ccc(-c3ccccc3)cc2)cc1` 1.20

More entries:
Fill in the blank: the reported log10(Ki) of `NC(=O)[C@H](CCC(=O)O)NC(=O)CCc1cc(-c2ccc(-c3cccc(Cl)c3)cc2)no1` is ____. 2.07

Also need `NC(=O)[C@H](CCCC(=O)O)NC(=O)[C@H](CCC(=O)O)NC(=O)CCc1cc(-c2ccc(-c3cccc(Cl)c3)cc2)no1` , thanks. 2.11

`NC(=O)CC[C@H](NC(=O)[C@H](CCC(=O)O)NC(=O)CCc1ccc(-c2ccc(-c3ccccc3)cc2)cc1)C(N)=O` , same question. 2.39

Would you kindly repeat that for `O=C(O)CC[C@H](NC(=O)CCc1ccc(-c2cc(-c3ccccc3)cs2)cc1)C(=O)Nc1cccc(CC(=O)O)c1` ? 2.90

---

target: UniProt:P22894; assay: Inhibition constant (Ki) on MMP-8h; format: biochemical; details: read-out: Ki MMP-8h; human MMP-8
Sequence (P22894 101-467): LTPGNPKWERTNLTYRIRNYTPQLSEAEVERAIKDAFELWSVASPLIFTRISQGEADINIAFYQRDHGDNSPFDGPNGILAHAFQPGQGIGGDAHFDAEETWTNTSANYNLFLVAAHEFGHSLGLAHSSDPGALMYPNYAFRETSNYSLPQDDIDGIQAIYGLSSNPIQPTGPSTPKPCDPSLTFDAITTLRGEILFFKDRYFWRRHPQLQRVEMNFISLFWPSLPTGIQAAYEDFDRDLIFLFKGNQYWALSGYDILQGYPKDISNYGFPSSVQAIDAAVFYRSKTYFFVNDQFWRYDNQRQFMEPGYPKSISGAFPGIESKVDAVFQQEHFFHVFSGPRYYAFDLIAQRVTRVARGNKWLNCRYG
// Ki lookup, one value per entry

Consider the worked cases shown below.
Query: Ki; subject: `NC(=O)[C@H](CCC(=O)O)NC(=O)[C@H](CCC(=O)O)NC(=O)CCc1ccc(-c2ncccn2)cc1` > 1000 nM

`NC(=O)[C@H](CCC(=O)O)NC(=O)[C@H](CCC(=O)O)NC(=O)CCc1ccc(-c2cccc(O)c2)cc1` ? > 1000 nM

And what about the molecule `NC(=O)[C@H](CCC(=O)O)NC(=O)[C@H](Cc1ccc(O)cc1)NC(=O)CCc1ccc(-c2ccc(-c3ccccc3)cc2)cc1` ? > 5000 nM

Quick one: `NC(=O)[C@H](CCC(=O)O)NC(=O)[C@H](CO)NC(=O)CCc1ccc(-c2ccc(-c3ccccc3)cc2)cc1` > 1000 nM

// below: Ki requested for another molecule
Return reported Ki; argument: `NC(=O)[C@H](CCC(=O)O)NC(=O)[C@H](CCC(=O)O)NC(=O)CCc1cn(-c2ccccc2)nn1` > 1000 nM

---

target: UniProt P08253; assay: Inhibition constant (Ki) on MMP-2h; type: biochemical; details: read-out: Ki MMP-2h; human MMP-2
Collected Ki values appear next to each entry.

For the compound NC(=O)[C@H](CCC(=O)O)NC(=O)[C@H](CCC(=O)O)NC(=O)CCc1csc(-c2ccccc2)n1 [Compound 27] , what Ki is on record? > 1 µM

Continuing:
Would you kindly share the measured Ki for NC(=O)[C@H](CC(=O)O)NC(=O)[C@H](CCC(=O)O)NC(=O)CCc1ccc(-c2cc(-c3ccccc3)cs2)cc1 [Compound 101] ? > 1 µM

What do you get for Cc1ccsc1-c1ccc(CCC(=O)N[C@@H](CCC(=O)O)C(=O)N[C@@H](CCC(=O)O)C(N)=O)cc1 [Compound 107] ? > 1 µM

And for NC(=O)[C@H](CCC(=O)O)NC(=O)[C@H](Cc1c[nH]cn1)NC(=O)CCc1ccc(-c2ccc(-c3ccccc3)cc2)cc1 [Compound 77] ? > 1 µM

Another compound to check: C[C@H](NC(=O)[C@H](CCC(=O)O)NC(=O)CCc1ccc(-c2ccccc2)cc1)C(N)=O [Compound 47] > 1 µM

---

molecular target: MMP-14h (Homo sapiens (Human), UniProt P50281); assay: Inhibition constant (Ki) on MMP-14h; format: biochemical; conditions: read-out: Ki MMP-14h; human MMP-14
Measured Ki by item

Look up Ki with MMP-14h (Homo sapiens (Human), UniProt P50281) for this compound: `C[C@H](NC(=O)[C@H](CCC(=O)O)NC(=O)CCc1cc(-c2ccc(-c3ccccc3)cc2)no1)C(N)=O` > 1000 nM

Would you mind doing `NC(=O)[C@H](CCC(=O)O)NC(=O)[C@H](CCC(=O)O)NC(=O)CCc1ccc(-c2ncccn2)cc1` as well? > 1000 nM

Param item: `NC(=O)[C@H](CCC(=O)O)NC(=O)[C@H](CC(=O)O)NC(=O)CCc1cc(-c2ccc(-c3ccccc3)cc2)no1` > 5000 nM

Next:
Hi! What's the reported Ki for `NC(=O)[C@H](CCC(=O)O)NC(=O)[C@H](CCC(=O)O)NC(=O)CCc1csc(-c2ccccc2)n1` on MMP-14h (Homo sapiens (Human), UniProt P50281)? > 5000 nM

Field entry: `O=C(O)CC[C@H](NC(=O)CCc1ccc(-c2cc(-c3ccccc3)cs2)cc1)C(=O)Nc1cccc(CC(=O)O)c1` > 1000 nM

Another compound to check: `NC(=O)[C@H](CC(=O)O)NC(=O)[C@H](CC(=O)O)NC(=O)CCc1cc(-c2ccc(-c3cccc(Cl)c3)cc2)no1` > 1000 nM

Let us now turn to `NC(=O)[C@H](CC(=O)O)NC(=O)[C@H](CCC(=O)O)NC(=O)CCc1ccc(-c2ccccc2)cc1` > 5000 nM

Now consider `NC(=O)[C@H](CCC(=O)O)NC(=O)[C@H](Cc1ccc(O)cc1)NC(=O)CCc1ccc(-c2ccc(-c3ccccc3)cc2)cc1` and answer again. > 10000 nM

Record: `NC(=O)[C@H](CCC(=O)O)NC(=O)[C@H](CCC(=O)O)NC(=O)CCc1ccc(-c2cccc(O)c2)cc1` > 10000 nM

What do we get for `NC(=O)[C@H](Cc1ccc(O)cc1)NC(=O)[C@H](CCC(=O)O)NC(=O)CCc1ccc(-c2ccccc2)cc1` ? > 5000 nM

Same again, this time with `NC(=O)[C@H](CCC(=O)O)NC(=O)[C@H](CCC(=O)O)NC(=O)CCc1ccc(-c2cc(Cl)cc(Cl)c2)cc1` > 1000 nM
